Origin of measurements: paper PMC5540273

# System: RIPK1
# condition label: concentration: 1 μM,replicates: in singlicate; n = 1;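 further: KINOMEscan kinase panel screen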
endpoint: %Inh (%)
Report the value in % with no unit label.

CN(c1ccccc1CNc1nc(Nc2ccc3c(c2)CC(=O)N3)ncc1C(F)(F)F)S(C)(=O)=O ... 0
CC(=O)Nc1ccc(-c2cc3ncnc(SCC(=O)O)c3s2)cc1 ... 0

stdin: Specify %Inh for `Cc1cccc(-c2nc(Nc3ccncc3)c3sccc3n2)n1` , system RIPK1.
stdout: 0

stdin: Specify %Inh for `COc1cccc(OC)c1C(=O)Nc1cccc(-c2nn3ccccc3c2-c2ccnc(Nc3cccc(F)c3)n2)c1` , system RIPK1.
stdout: 17

stdin: Specify %Inh for `Cn1cc(-c2cccc3c(N)c(C(N)=O)nnc23)cn1` , system RIPK1.
stdout: 3

stdin: Specify %Inh for COC(=O)c1cccc(NC(=O)NC2CCN(c3ccnc(Nc4cc(OC)c(OC)c(OC)c4)n3)C2)c1 (centres unmarked) , system RIPK1.
stdout: 23

====

Item-by-item account of %Inh
# Test system: IRAK3
# condition label: concentration: 1 μM,replicates: in singlicate; n = 1
Report the value in % with no unit label.

Solved cases below.
Cc1ccc2c(-c3ccnc(Nc4ccc(C(F)(F)F)cc4)n3)cnn2n1 ... 4
COc1cccc(OC)c1C(=O)Nc1cccc(-c2nn3ccccc3c2-c2ccnc(Nc3cccc(F)c3)n2)c1 ... 0
CN1CCN(CCNc2nc3cc(Oc4ccc(NC(=O)Nc5cc(C(F)(F)F)ccc5F)cc4)ccc3[nH]2)CC1.Cl.Cl ... 5

stdin: Fill in %Inh for record `Cc1ccc(C(=O)Nc2ccc(Oc3ccc4nc(NC(=O)C5CC5)cn4c3)c(F)c2)c(=O)n1-c1ccccc1`
stdout: 44

stdin: Fill in %Inh for record COc1ccc(Nc2nccc(N3CCC(NC(=O)c4cccc(C#N)c4)C3)n2)cc1 (stereo not drawn)
stdout: 0

stdin: Fill in %Inh for record `Cl.c1ccc(Oc2ccc(Nc3ccnc4cc(-c5ccc(CN6CCNCC6)o5)ccc34)cc2)nc1`
stdout: 0

stdin: Fill in %Inh for record `COc1cc2c(Nc3ccc(NC(=O)c4ccccc4)cc3)ncnc2cc1OCCCN1CCOCC1`
stdout: 26

stdin: Fill in %Inh for record `CN(c1ccc2c(c1)nc(NCc1ccc(F)cc1)n2C)c1ccnc(Nc2ccc(CS(C)(=O)=O)cc2)n1.Cl`
stdout: 1

stdin: Fill in %Inh for record `Cn1ccc2ncnc(Oc3ccc(NC(=O)Nc4cnn(C(C)(C)C)c4)c(Cl)c3)c21`
stdout: 0

stdin: Fill in %Inh for record Cc1nnc(-c2ccc3occ(-c4ccc(S(C)=O)cc4)c3n2)o1 (stereo not drawn)
stdout: 0

stdin: Fill in %Inh for record COc1cccc(CNC(=O)NC2CCN(c3ccnc(Nc4cc(OC)c(OC)c(OC)c4)n3)C2)c1 (stereo not drawn)
stdout: 86

====

# Tested on: FER
# condition label: concentration: 1 μM,replicates: in singlicate; n = 1
Item-by-item account of %Inh
Report the value in % with no unit label.

stdin: Fill in %Inh for record `COc1cc2nccc(Nc3ccc(Oc4ccccc4)cc3)c2cc1OC.Cl`
stdout: 33

stdin: Fill in %Inh for record `O=C(NOCC1CC1)c1cc(Br)c(F)c(F)c1Nc1ccc(I)cc1Cl`
stdout: 11

stdin: Fill in %Inh for record `O=C(Nc1ccccc1)c1cccc(Oc2ccc3nccn3n2)c1`
stdout: 2

stdin: Fill in %Inh for record `Cn1ccc2ncnc(Oc3ccc(NC(=O)Nc4ccnc(C(F)(F)F)c4)c(Cl)c3)c21`
stdout: 0

stdin: Fill in %Inh for record N#Cc1cccc(C(=O)NC2CCN(c3ccnc(Nc4ccc(F)cc4)n3)C2)c1 (stereo not drawn)
stdout: 30

stdin: Fill in %Inh for record COc1ccc(Nc2nccc(N3CCC(NC(=O)c4cccc(C#N)c4)C3)n2)cc1 (stereo not drawn)
stdout: 27

stdin: Fill in %Inh for record COc1cc(Nc2nccc(N3CCC(NC(=O)c4cccc(C#N)c4)C3)n2)cc(OC)c1OC (stereo not drawn)
stdout: 0

stdin: Fill in %Inh for record `C[C@@H](Oc1cc(-n2cnc3cc(-c4ccncc4)ccc32)sc1C(N)=O)c1ccccc1Cl`
stdout: 13

stdin: Fill in %Inh for record CCNCC(Cc1ccccc1)NC(=O)c1cc(Br)c(-c2ccnc3[nH]ccc23)s1.Cl.Cl (stereo not drawn)
stdout: 0

stdin: Fill in %Inh for record `O=C(Nc1cccc(Oc2ccc3nccn3n2)c1)Nc1cccc(C(F)(F)F)c1`
stdout: 0

stdin: Fill in %Inh for record `O=c1[nH]cc(-c2ccc(O)cc2)c2sc(-c3ccncc3)cc12`
stdout: 1

stdin: Fill in %Inh for record `CCn1c(-c2nonc2N)nc2cncc(Br)c21`
stdout: 10

====

# Test system: MYLK4
# condition label: concentration: 1 μM,replicates: in singlicate; n = 1
Item-by-item account of %Inh
Report the value in % with no unit label.

Solved cases below.
Cn1ccc2ncnc(Oc3ccc(NC(=O)Nc4ccnc(C(F)(F)F)c4)c(Cl)c3)c21 ... 0
Cn1ccc2ncnc(Oc3ccc(NC(=O)Nc4cc(C(C)(C)C)on4)c(Cl)c3)c21 ... 0

stdin: Fill in %Inh for record `O=C(NCC1CC1)c1ccc(-c2cc(C(=O)NC3CC3)ccc2F)cc1`
stdout: 0

====

Item-by-item account of %Inh
# Tested on: MST1R
# condition label: concentration: 1 μM,replicates: in singlicate; n = 1
Be sure to follow the number with its unit.

Solved cases below.
Cc1n[nH]c2cc(Nc3ccnc(Nc4cccc(CN5CCOCC5)c4)n3)ccc12 ... 34%
FC(F)(F)c1cc(Br)cc(Nc2nccc(-c3cnn4ncccc34)n2)c1 ... 0%

Let us move to another entry and its %Inh.
stdin: Fill in %Inh for record `CC(=O)Nc1ccc(-c2cc3ncnc(SCC(=O)O)c3s2)cc1`
stdout: 25%

====

Item-by-item account of %Inh
# System: CDK7
# condition label: concentration: 1 μM,replicates: in singlicate; n = 1
Report the value in % with no unit label.

Solved cases below.
CC(C(=O)NC1CCN(c2ccnc(Nc3ccc(F)cc3)n2)C1)c1ccc(Cl)cc1 (stereo not drawn) [GSK1379713] ... 0
Cc1nnc(-c2ccc3occ(-c4ccc(S(C)=O)cc4)c3n2)o1 (stereo not drawn) ... 0
CC(=O)c1c(-c2ccncc2)[nH]c(-c2ccncc2)c1C [GW493036] ... 96.2
Cc1ccn2nc(-c3ccc(F)cc3)c(-c3ccncc3)c2c1.Cl [GW457859] ... 47

stdin: Fill in %Inh for record `Cn1ccc2ncnc(Oc3ccc(NC(=O)Nc4ccnc(C(F)(F)F)c4)c(Cl)c3)c21`
stdout: 1

stdin: Fill in %Inh for record Cc1ccc(CC(=O)N2CCc3cc(-c4cn(C)c5ncnc(N)c45)ccc32)cc1 [GSK2634758]
stdout: 1

====

# System: JNK3
# Construct: gene MAPK10
# condition label: concentration: 1 μM,replicates: in singlicate; n = 1
endpoint: %Inh (%)
Report the value in % with no unit label.

Solved cases below.
CN(c1ccccc1CNc1nc(Nc2ccc3c(c2)CC(=O)N3)ncc1C(F)(F)F)S(C)(=O)=O ... 63
Cc1n[nH]c2cc(Nc3ccnc(Nc4cccc(CN5CCOCC5)c4)n3)ccc12 [GW682569] ... 85
CS(=O)(=O)Nc1ccc(-c2ccnc3[nH]ccc23)cc1 [GSK993273] ... 28

stdin: Fill in %Inh for record Cc1nnc(-c2ccc3occ(-c4ccc(S(C)=O)cc4)c3n2)o1 (stereo not shown)
stdout: 0

stdin: Fill in %Inh for record `Cn1ccc2ncnc(Oc3ccc(NC(=O)Nc4cccc(C(F)(F)F)c4)c(Cl)c3)c21`
stdout: 0

====

# Tested on: RIOK2
# condition label: concentration: 1 μM,replicates: in singlicate; n = 1
Item-by-item account of %Inh
Report the value in % with no unit label.

CN1CCN(CCNc2nc3cc(Oc4ccc(NC(=O)Nc5cc(C(F)(F)F)ccc5F)cc4)ccc3[nH]2)CC1.Cl.Cl ... 0
O=C(NOCC1CC1)c1cc(Br)c(F)c(F)c1Nc1ccc(I)cc1Cl ... 0
Cl.Nc1n[nH]c2cc(-c3ccccn3)ccc12 ... 0
CN(c1ccc2c(c1)nc(NCc1ccc(F)cc1)n2C)c1ccnc(Nc2ccc(CS(C)(=O)=O)cc2)n1.Cl ... 21
CN(c1ccccc1CNc1nc(Nc2ccc3c(c2)CC(=O)N3)ncc1C(F)(F)F)S(C)(=O)=O ... 0
O=C(Nc1cccc(C(F)(F)F)c1)c1cccc(Oc2ccc3nccn3n2)c1 ... 0
CCCC(=O)Nc1n[nH]c2ncccc12 ... 0
Cc1ccc(CC(=O)N2CCc3cc(-c4cn(C)c5ncnc(N)c45)ccc32)cc1 ... 0
C[C@@H](Oc1cc(-n2cnc3cc(-c4ccncc4)ccc32)sc1C(N)=O)c1ccccc1Cl ... 9
COc1cc2c(Nc3ccc(NC(=O)c4ccccc4)cc3)ncnc2cc1OCCCN1CCOCC1 ... 14

stdin: Fill in %Inh for record `CC(=O)Nc1nc2cnc(Nc3cc(NC(=O)c4cccc(CC(C)(C)C#N)c4)ccc3C)nc2s1`
stdout: 22

stdin: Fill in %Inh for record `CS(=O)(=O)c1cccc(CNc2nc(Nc3ccc4c(c3)[C@@H]3C[C@@H]4CNC3=O)ncc2C(F)(F)F)c1`
stdout: 0

stdin: Fill in %Inh for record `CC(=O)Nc1ccc(-c2cc3ncnc(SCC(=O)O)c3s2)cc1`
stdout: 0
